# TARGET OR TEST SYSTEM: peroxisome proliferator activator receptor gamma (PPARG) (Homo sapiens)
# Sequence (P37231 whole entry): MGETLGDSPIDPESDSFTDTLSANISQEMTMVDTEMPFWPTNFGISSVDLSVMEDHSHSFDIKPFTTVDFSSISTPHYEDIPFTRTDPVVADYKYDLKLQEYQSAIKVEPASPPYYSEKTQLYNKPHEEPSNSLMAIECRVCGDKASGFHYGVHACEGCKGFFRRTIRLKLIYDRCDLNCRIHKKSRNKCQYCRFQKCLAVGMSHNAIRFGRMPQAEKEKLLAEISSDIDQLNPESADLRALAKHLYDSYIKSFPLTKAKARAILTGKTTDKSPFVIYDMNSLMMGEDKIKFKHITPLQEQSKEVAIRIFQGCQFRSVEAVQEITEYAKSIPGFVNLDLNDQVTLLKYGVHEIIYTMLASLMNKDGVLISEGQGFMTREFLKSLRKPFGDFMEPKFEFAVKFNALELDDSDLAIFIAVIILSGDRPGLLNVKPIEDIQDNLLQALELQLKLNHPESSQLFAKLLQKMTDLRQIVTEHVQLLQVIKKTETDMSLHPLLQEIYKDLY
# PROTOCOL TEXT: SPR (Biacore T200), PPARG immobilized on CM5 chip
# Type: binding
QUANTITY NAME: Kd (µM)

{"MOLECULE": "CCCCC/C=C/C=C1/C(=O)C=C[C@@H]1C/C=C\\CCCC(=O)O [15d-PGJ2, reference compound]", "TARGET OR TEST SYSTEM": "peroxisome proliferator activator receptor gamma (PPARG) (Homo sapiens)", "NUMERIC READOUT": 9.8}
